# tested.on: GMPPNP-loaded KRAS G12C (Homo sapiens, UniProt P01116, G12C)
# Sequence (P01116 1-188 isoform P01116-2 G12C): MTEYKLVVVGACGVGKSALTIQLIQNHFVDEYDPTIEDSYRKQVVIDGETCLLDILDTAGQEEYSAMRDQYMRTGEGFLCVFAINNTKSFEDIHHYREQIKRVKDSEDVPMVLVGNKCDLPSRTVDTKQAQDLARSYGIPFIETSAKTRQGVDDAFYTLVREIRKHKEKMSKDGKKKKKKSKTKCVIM
# test: KRAS G12C RAF Disruption Assay (HTRF)
# recorded.conditions: recombinant GMPPNP-loaded KRAS G12C (5 nM), 20 min with compound; GST-RAF1 RBD (9 nM); HTRF signal; read-out: KRASG12C RAF Disruption Assay (IC50)
pIC50: −log10 of the molar value.
result.type: pIC50

C#Cc1cccc2cccc(-c3ncc4c(N(C)C5CCN(C(=O)/C(F)=C/c6ccccn6)C5C)nc(OC[C@@]56CCCN5C[C@H](F)C6)nc4c3F)c12 (single isomer, unassigned) [Example 74 cis isomer 2]: 6.04

[I] Cc1ccc2[nH]ncc2c1-c1ncc2c(N3CCN(C(=O)/C(F)=C/c4ccccn4)CC3)nc(OC[C@@]34CCCN3C[C@H](F)C4)nc2c1F [Example 30]
[II] C#Cc1cccc2cccc(-c3ncc4c(N5C[C@H]6CN(C(=O)/C(F)=C/c7ncccn7)C[C@H]6C5)nc(OC[C@@]56CCCN5C[C@H](F)C6)nc4c3F)c12 [Compound 101]
Task item: Smaller pIC50 value? Options are I and II Write down the label of the entry you select.
Reply: II
